Values from ChEMBL document CHEMBL1153257

molecular target: Cholecystokinin receptor type A (Rattus norvegicus); experiment: The compound was tested for its activity to inhibit the binding of [125I]CCK-8 to Cholecystokinin type A receptor in rat pancreas
Sequence (P30551 whole entry): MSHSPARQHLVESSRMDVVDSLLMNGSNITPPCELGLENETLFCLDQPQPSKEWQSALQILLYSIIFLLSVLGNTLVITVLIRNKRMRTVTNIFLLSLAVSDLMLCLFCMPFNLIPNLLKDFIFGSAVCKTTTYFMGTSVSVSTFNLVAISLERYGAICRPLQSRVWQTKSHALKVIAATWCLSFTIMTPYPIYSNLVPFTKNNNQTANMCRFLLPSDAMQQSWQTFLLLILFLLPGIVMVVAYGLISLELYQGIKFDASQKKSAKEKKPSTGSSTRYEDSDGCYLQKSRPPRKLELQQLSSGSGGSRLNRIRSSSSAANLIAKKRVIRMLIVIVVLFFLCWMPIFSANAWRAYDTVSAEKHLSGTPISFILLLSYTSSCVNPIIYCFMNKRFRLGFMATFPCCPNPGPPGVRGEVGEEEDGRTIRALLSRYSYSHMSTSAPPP
Measured endpoint: IC50 (nM)
Write the value in nM as a bare number.

CN1C(=O)[C@H](NC(=O)c2ccc(Cl)cc2)N=C(c2ccccc2)c2ccccc21 = 2.9

Query: Can you share its IC50? I mean this molecule: CN1C(=O)[C@@H](NC(=O)c2ccc(Cl)cc2)N=C(c2ccccc2)c2ccccc21
Result: 0.39

====

target: Cholecystokinin receptor type A (Rattus norvegicus); experiment: The compound was tested for its activity to inhibit the binding of [3H]-L-364,718 to Cholecystokinin type A receptor in rat pancreas
pIC50 reference
Reminder that pIC50 is minus the log10 of a molar concentration.

Worked cases, answers included:
O=C1NN(C(=S)Nc2ccc(Cl)c(C(F)(F)F)c2)[C@H](c2ccccc2)[C@H]1c1ccccc1 = 7.77
O=C1NN(C(=S)Nc2ccc(Cl)c(C(F)(F)F)c2)C(c2ccccc2)C1c1ccccc1 (stereo unspecified) = 7.38
O=C1NN(C(=S)Nc2ccc(Cl)c(C(F)(F)F)c2)[C@@H](c2ccccc2)[C@@H]1c1ccccc1 = 6.09
O=C1NN(C(=O)Nc2ccc(Br)cc2)[C@H](c2ccccc2)[C@H]1c1ccccc1 = 5.19

Query: Can you share its pIC50? I mean this compound: O=C1NN(C(=O)Nc2ccc(Br)cc2)[C@@H](c2ccccc2)[C@@H]1c1ccccc1
Result: 4.69

Query: Follow-up entry: O=C1NN(C(=O)Nc2ccc(Br)cc2)C(c2ccccc2)C1c1ccccc1 (stereo unspecified)
Result: 4.94

====

IC50 reference
Target: Gastrin/cholecystokinin type B receptor (Mus musculus, UniProt P56481)
Sequence (P56481 whole entry): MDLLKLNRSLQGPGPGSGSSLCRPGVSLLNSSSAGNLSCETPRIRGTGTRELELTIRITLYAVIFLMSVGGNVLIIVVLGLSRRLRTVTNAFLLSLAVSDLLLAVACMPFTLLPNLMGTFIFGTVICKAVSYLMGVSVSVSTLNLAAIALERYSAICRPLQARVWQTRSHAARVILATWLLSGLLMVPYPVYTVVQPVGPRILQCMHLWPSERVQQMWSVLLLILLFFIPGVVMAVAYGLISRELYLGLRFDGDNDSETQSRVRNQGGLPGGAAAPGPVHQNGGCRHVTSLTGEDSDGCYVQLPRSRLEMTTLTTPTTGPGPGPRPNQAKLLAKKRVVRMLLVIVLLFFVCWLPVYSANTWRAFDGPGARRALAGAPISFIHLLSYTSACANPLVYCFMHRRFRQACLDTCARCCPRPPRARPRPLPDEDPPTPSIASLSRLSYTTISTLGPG
Test: The compound was tested for its activity to inhibit the binding of [125I]CCK-8 to Cholecystokinin type B receptor in mouse brain at a pH of 7.4
Assay type: tissue-based
Write the value in nM as a bare number.

Query: Can you share its IC50? I mean this molecule: O=C1NN(C(=S)Nc2ccc(Cl)c(C(F)(F)F)c2)[C@H](c2ccccc2)[C@H]1c1ccccc1
Result: 1900

Query: Follow-up entry: O=C1NN(C(=S)Nc2ccc(Cl)c(C(F)(F)F)c2)[C@@H](c2ccccc2)[C@@H]1c1ccccc1
Result: 550

Query: Follow-up entry: O=C1NN(C(=S)Nc2ccc(Cl)c(C(F)(F)F)c2)C(c2ccccc2)C1c1ccccc1 (stereo not drawn)
Result: 880
